Biological target: BRD4 (BDII_E352-M457) (Homo sapiens (Human), UniProt O60885)
Experiment: TR-FRET bromodomain binding assay, BRD4 second bromodomain
Details: His-tagged BD2, 30 nM Alexa647 probe
ASSAY ENDPOINT: Ki (µM)
Write it as a number; the unit µM goes unstated.

Consider the worked cases shown below.
Given Cc1[nH]c(-c2cccc(C(N)=O)c2)c2c1C(=O)CCC2 [Example 9] , state its recorded Ki.
3.1

For Cc1[nH]c(-c2cccc(OCc3ccccc3)c2)c2c1C(=O)CCC2 [Example 14] then?
22.2

For CC(=O)Nc1ccc(Oc2ccccc2)c(-c2c3c(c(C)n2C)C(=O)CCC3)c1 [Example 42] then?
1.09

For Cc1[nH]c(-c2cc(NS(C)(=O)=O)ccc2Oc2ccc(F)cc2F)c2c1C(=O)CCC2 [Example 46] then?
0.052

For Cc1[nH]c(-c2ccccc2OCC2CCCC2)c2c1C(=O)CCC2 [Example 30] then?
4.78

For Cc1[nH]c(-c2ccccc2OCCN2CCOCC2)c2c1C(=O)CCC2 [Example 33] then?
8.16

For Cc1[nH]c(-c2ccc3c(c2)OCO3)c2c1C(=O)CCC2 [Example 16] then?
8.42

For Cc1ccc(-c2[nH]c(C)c3c2CCCC3=O)cc1C [Example 12] then?
10.4

Then there is this compound:
Given Cc1[nH]c(-c2ccccc2N2CCOCC2)c2c1C(=O)CC(C)(C)C2 [Example 61] , state its recorded Ki.
1.68
